- system: recombinant human Dopamine Subtype D2s receptors (Homo sapiens, UniProt P14416)
- Construct: purchased Perkin Elmer
- Sequence (P14416 1-414 isoform P14416-2): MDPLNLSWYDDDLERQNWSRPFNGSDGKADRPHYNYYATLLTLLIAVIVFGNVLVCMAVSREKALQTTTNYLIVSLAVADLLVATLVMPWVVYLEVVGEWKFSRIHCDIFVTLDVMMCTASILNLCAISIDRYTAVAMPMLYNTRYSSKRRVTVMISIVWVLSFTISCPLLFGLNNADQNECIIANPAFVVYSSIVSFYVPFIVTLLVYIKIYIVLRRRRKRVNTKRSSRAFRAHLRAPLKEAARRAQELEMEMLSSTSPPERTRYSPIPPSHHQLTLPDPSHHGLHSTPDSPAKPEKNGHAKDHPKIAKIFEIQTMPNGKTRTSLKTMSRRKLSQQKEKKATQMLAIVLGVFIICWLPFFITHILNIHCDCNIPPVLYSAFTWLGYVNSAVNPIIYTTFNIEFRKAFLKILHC
- assay-method-text: Dopamine D2 selectivity assay, [3H]-spiperone binding to membranes
- experimental-conditions: read-out: D2 bind pIC50 (converted)
- Method: Membranes containing recombinant human Dopamine Subtype D2s receptors were obtained from Perkin Elmer. […] Assays were performed in U-bottomed 96-well polypropylene plates. […] Five washes with 250 μL wash buffer (50 mM HEPES, 1 mM EDTA, 120 mM NaCl, pH 7.4) were performed at 4° C. to remove unbound radioactivity. […] The plates were sealed (TopSeal A) and filter-bound radioactivity was measured with a scintillation counter (TopCount, Packard BioScience) using a 3-minute counting protocol. […]
property-measured: IC50 (µM)
Provide the reading as a plain figure in µM.

Exercise: Observed IC50 on recombinant human Dopamine Subtype D2s receptors (Homo sapiens, UniProt P14416) for CCN(CC)CCN(CCNC[C@H](O)c1ccc(O)c2[nH]c(=O)sc12)C(=O)CCOCCc1cccc2ccccc12 [Example 6] , please.
Solution: 2.51

Exercise: Observed IC50 on recombinant human Dopamine Subtype D2s receptors (Homo sapiens, UniProt P14416) for CCN(CC)CCN(CCNC[C@H](O)c1ccc(O)c2[nH]c(=O)sc12)C(=O)CCOCCc1ccccc1 [Example 7] , please.
Solution: 5.01

###

- system: recombinant human adrenergic beta 1 receptors (Homo sapiens, UniProt P08588)
- Construct: purchased Euroscreen
- Sequence (P08588 whole entry): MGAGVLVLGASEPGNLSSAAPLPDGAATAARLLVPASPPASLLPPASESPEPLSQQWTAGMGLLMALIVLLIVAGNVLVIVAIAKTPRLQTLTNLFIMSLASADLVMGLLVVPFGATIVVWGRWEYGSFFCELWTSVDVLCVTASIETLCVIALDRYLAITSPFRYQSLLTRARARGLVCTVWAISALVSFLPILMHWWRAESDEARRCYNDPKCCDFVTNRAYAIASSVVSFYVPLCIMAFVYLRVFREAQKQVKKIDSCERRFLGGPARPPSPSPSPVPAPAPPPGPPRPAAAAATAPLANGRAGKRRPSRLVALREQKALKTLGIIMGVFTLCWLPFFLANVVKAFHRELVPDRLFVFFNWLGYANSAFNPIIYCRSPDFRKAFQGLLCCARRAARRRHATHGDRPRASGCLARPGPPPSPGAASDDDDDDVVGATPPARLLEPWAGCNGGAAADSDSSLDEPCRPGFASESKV
- assay-method-text: Adrenergic β1 selectivity assay, [125I]-Iodocyanopindolol binding to membranes
- experimental-conditions: inhibition of [125I]-Iodocyanopindolol binding (0.036 nM); read-out: β1 bind pIC50 (converted)
Counter-ions that a name gives are not always drawn.
property-measured: log10 IC50 (log10 of the value in nM)
On a log10 scale: recorded IC50, unit nM.

Exercise: Need log10 IC50, item `CCN(CC)CCN(CCNC[C@H](O)c1ccc(O)c2[nH]c(=O)sc12)C(=O)CCOCCc1cccc2ccccc12`
Solution: 2.80

Exercise: Need log10 IC50, item CN(CCNC[C@H](O)c1ccc(O)c2[nH]c(=O)sc12)C(=O)CCOCCc1ccccc1 [Example 5, Trifluoroacetate]
Solution: 1.10

Exercise: Need log10 IC50, item `CCN(CC)CCN(CCNC[C@H](O)c1ccc(O)c2[nH]c(=O)sc12)C(=O)CCOCCc1cccc(Cl)c1`
Solution: 3.20

Exercise: Need log10 IC50, item CCCCN(CCNC[C@H](O)c1ccc(O)c2[nH]c(=O)sc12)C(=O)CCOCCc1ccccc1.Cl [Example 2, Hydrochloride]
Solution: 0.80

Exercise: Need log10 IC50, item `O=C(CCOCCc1ccccc1)N(CCNC[C@H](O)c1ccc(O)c2[nH]c(=O)sc12)CCc1ccccc1`
Solution: 0.50

###

- system: β2 receptor (Homo sapiens, UniProt P07550)
- Construct: endogenous in cells; host or cells: H292 cells
- Sequence (P07550 whole entry): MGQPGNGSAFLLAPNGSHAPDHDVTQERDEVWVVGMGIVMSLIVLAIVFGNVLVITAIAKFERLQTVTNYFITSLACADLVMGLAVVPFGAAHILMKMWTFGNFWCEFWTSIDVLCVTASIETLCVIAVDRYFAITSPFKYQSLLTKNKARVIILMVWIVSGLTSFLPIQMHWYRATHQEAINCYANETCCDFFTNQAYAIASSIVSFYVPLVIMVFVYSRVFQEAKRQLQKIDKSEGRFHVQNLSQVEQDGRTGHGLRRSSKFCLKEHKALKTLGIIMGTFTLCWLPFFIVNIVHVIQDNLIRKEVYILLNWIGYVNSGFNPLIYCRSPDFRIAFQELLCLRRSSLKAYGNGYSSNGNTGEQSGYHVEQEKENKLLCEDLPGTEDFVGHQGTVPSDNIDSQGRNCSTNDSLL
- assay-method-text: Alternative adrenergic β2 mediated cAMP production in H292 cells (60 minutes with test compound)
- Type: cell-based
- experimental-conditions: fraction relative to the maximum activity determined for formoterol, 60 minutes incubation
Structures can show the parent of a compound that is named as a salt.
Assignment: determine reported β2 Int Act for the given molecules.
# print the numeric value only

Exercise: Need β2 Int Act, item CCN(CC)CCN(CCNC[C@H](O)c1ccc(O)c2[nH]c(=O)sc12)C(=O)CCOCCc1cccc(Cl)c1 [Example 9]
Solution: 0.9

Exercise: Need β2 Int Act, item CCN(CC)CCN(CCNC[C@H](O)c1ccc(O)c2[nH]c(=O)sc12)C(=O)CCOCCc1cccc2ccccc12 [Example 6]
Solution: 0.9

Exercise: Need β2 Int Act, item CN(CCNC[C@H](O)c1ccc(O)c2[nH]c(=O)sc12)C(=O)CCOCCc1ccccc1 [Example 5, Trifluoroacetate]
Solution: 1

Exercise: Need β2 Int Act, item O=C(CCOCCc1ccccc1)N(CCNC[C@H](O)c1ccc(O)c2[nH]c(=O)sc12)CCc1ccccc1 [Example 4]
Solution: 0.9

Exercise: Need β2 Int Act, item CCN(CC)CCN(CCNC[C@H](O)c1ccc(O)c2[nH]c(=O)sc12)C(=O)CCOCCc1ccccc1 [Example 7]
Solution: 1

Exercise: Need β2 Int Act, item CCCCN(CCNC[C@H](O)c1ccc(O)c2[nH]c(=O)sc12)C(=O)CCOCCc1ccccc1.Cl [Example 2]
Solution: 0.9
